meta.source: paper PMC10825690

Biological target: wildtype (WT) FIBCD1-FReD (Homo sapiens)
Sequence (Q8N539 236-461): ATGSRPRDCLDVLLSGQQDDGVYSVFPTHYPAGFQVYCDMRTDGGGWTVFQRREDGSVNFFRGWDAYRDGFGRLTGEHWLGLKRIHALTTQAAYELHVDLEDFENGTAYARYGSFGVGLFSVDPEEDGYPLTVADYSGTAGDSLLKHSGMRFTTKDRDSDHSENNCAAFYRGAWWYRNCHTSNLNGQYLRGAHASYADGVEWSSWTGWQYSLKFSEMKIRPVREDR
Consider the following molecules; for each one, report its IC50.
One number for each entry, in mM.

Recorded results for 2 molecules are shown here.
molecule	observation_type	unit_abbrev	numeric_result
CC(=O)N[C@H]1[C@H](O[C@H]2[C@H](O)[C@@H](NC(C)=O)C(O)O[C@@H]2CO)O[C@H](CO)[C@@H](O[C@@H]2O[C@H](CO)[C@@H](O)[C@H](O)[C@H]2NC(C)=O)[C@@H]1O (stereo partly drawn) [(GlcNAc)3]	IC50	mM	1.1
CC(=O)N[C@@H]1[C@@H](O)[C@H](O)[C@@H](CO)O[C@H]1O [GlcNAc, N-acetylglucosamine]	IC50	mM	2.2

Please look at the following molecule next.
The measured IC50 associated with CC(=O)N[C@H]1[C@H](O[C@H]2[C@H](O)[C@@H](NC(C)=O)C(O)O[C@@H]2CO)O[C@H](CO)[C@@H](O)[C@@H]1O (stereo partly drawn) [(GlcNAc)2, N,N′-diacetylchitobiose] reads 1.4

###

Consider the following compounds; for each one, report its pIC50.
Target: mutant variant H396A FIBCD1-FReD (Homo sapiens, UniProt Q8N539, H396A)
Construct: FIBCD1-FReD (residues 236–461) was expressed in Sf9 insect cells; IgG K signal peptide (N)
Assay: Repeated ELISA inhibition of H396A FIBCD1-FReD (CHO expressed) binding to AcBSA
Conditions: ELISA repeated measurements, mean ± SD, five experiments
One number for each entry, as −log10 of the molar value.

Recorded results for 2 compounds are shown here.
compound	target_of_assay	pIC50
CC(=O)N[C@@H]1[C@@H](O)[C@H](O)[C@@H](CO)O[C@H]1O	mutant variant H396A FIBCD1-FReD (Homo sapiens, UniProt Q8N539, H396A)	2.62
CC(=O)N[C@H]1[C@H](O[C@H]2[C@H](O)[C@@H](NC(C)=O)C(O)O[C@@H]2CO)O[C@H](CO)[C@@H](O)[C@@H]1O (stereo partly drawn)	mutant variant H396A FIBCD1-FReD (Homo sapiens, UniProt Q8N539, H396A)	2.85

Please look at the following compound next.
The measured pIC50 associated with CC(=O)N[C@H]1[C@H](O[C@H]2[C@H](O)[C@@H](NC(C)=O)C(O)O[C@@H]2CO)O[C@H](CO)[C@@H](O[C@@H]2O[C@H](CO)[C@@H](O)[C@H](O)[C@H]2NC(C)=O)[C@@H]1O (stereo partly drawn) reads 2.92
